# System: hypercholesterolemic mice
# PROTOCOL DESCRIPTION: Hypocholesterolemic: serum cholesterol in hypercholesterolemic mice
# Assay type: in vivo, mouse
# TEST SETTINGS: Mus musculus; hypercholesterolemic mice, 2 oral doses of 200 mg/kg 20 hr. apart; significance >20; read-out: C = Hypocholesterolemic: percent decrease in serum cholesterol
READOUT LABEL: inhibition in vivo at 200 mg/kg (%)
Note: unit % is implicit; provide only the numeric part.

### Prompt Value lookup for inhibition in vivo at 200 mg/kg; key = CC1(C)CCCC(C)(C)N1CC1=CC(=O)N(c2cccc(SC(F)(F)F)c2)C1
### Response 0

### Prompt Next molecule: CC1(C)CCCC(C)(C)N1CC1=CC(=O)N(c2ccc(F)cc2)C1
### Response 0

### Prompt Another molecule to look at: CC1(C)CCCC(C)(C)N1CC1=CC(=O)N(c2cccc(Br)c2)C1
### Response 5

### Prompt Proceed to CC1(C)CCCC(C)(C)N1CC1=CC(=O)N(c2ccccc2)C1
### Response 12

### Prompt Can you check CC1(C)CCCC(C)(C)N1CC1=CC(=O)N(c2cccc(Cl)c2)C1 next?
### Response 13

### Prompt Okay, and Cc1cccc(N2CC(CN3C(C)(C)CCCC3(C)C)=CC2=O)c1 ?
### Response 25

### Prompt And the next one, CC1(C)CCCC(C)(C)N1CC1=CC(=O)N(c2cccc(C(F)(F)F)c2)C1 ?
### Response 5
